# Test system: K. pneumoniae FADDI-KP032
# run.description: In vivo efficacy in mouse blood infection model (neutropenic Swiss mice)
# condition.set: compound, free base 4 mg/kg intravenously 2 h after inoculation, blood at 4 h
Positions of bridges follow the written chain, without caps; N, C: chain ends. Non-standard residues stand in square brackets, D forms with d. Residues, ends and D or L forms follow the SMILES beside them. *: point of attachment. Heptanoyl = CCCCCCC(=O)*; Octanoyl = CCCCCCCC(=O)*; Dab = NCC[C@H](N)C(=O)O; Abu = CC[C@H](N)C(=O)O; Dap = NC[C@H](N)C(=O)O
observable: Δ log (Treated-Control at 4 h) (log10 CFU/mL)
Kindly provide the numeric value in log10 CFU/mL only, without the unit symbol.

I have this compound here, CCCCCCCC(=O)N[C@@H](CCN)C(=O)N[C@H](C(=O)N[C@@H](CCN)C(=O)N[C@H]1CCNC(=O)[C@H]([C@@H](C)O)NC(=O)[C@H](CCN)NC(=O)[C@H](CCN)NC(=O)[C@H](CO)NC(=O)[C@@H](CC(C)C)NC(=O)[C@H](CCN)NC1=O)[C@@H](C)O [Compound 25] (Octanoyl-[Dab]T[Dab][Dab][Dab][dL]S[Dab][Dab]T; lactam 4-C) , and I need its recorded Δ log (Treated-Control at 4 h).
−2.65

I have this compound here, CCCCCCCC(=O)N[C@@H](CCN)C(=O)N[C@H](C(=O)N[C@@H](CN)C(=O)N[C@H]1CCNC(=O)[C@H]([C@@H](C)O)NC(=O)[C@H](CCN)NC(=O)[C@H](CCN)NC(=O)[C@H]([C@@H](C)O)NC(=O)[C@@H](Cc2ccccc2)NC(=O)[C@H](CCN)NC1=O)[C@@H](C)O [Compound 129] (Octanoyl-[Dab]T[Dap][Dab][Dab][dF]T[Dab][Dab]T; lactam 4-C) , and I need its recorded Δ log (Treated-Control at 4 h).
−3.64

I have this compound here, CCCCCCC(=O)N[C@@H](CCN)C(=O)N[C@H](C(=O)N[C@@H](CN)C(=O)N[C@H]1CCNC(=O)[C@H]([C@@H](C)O)NC(=O)[C@H](CCN)NC(=O)[C@H](CCN)NC(=O)[C@H](CC)NC(=O)[C@@H](Cc2ccccc2)NC(=O)[C@H](CCN)NC1=O)[C@@H](C)O [Compound 131] (Heptanoyl-[Dab]T[Dap][Dab][Dab][dF][Abu][Dab][Dab]T; lactam 4-C) , and I need its recorded Δ log (Treated-Control at 4 h).
−3.44
